B1: Twister Ribozyme (parent)
chain: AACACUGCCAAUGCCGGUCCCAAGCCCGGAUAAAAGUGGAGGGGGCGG

variants of: B1; test: self-cleavage, relative activity (ratio to wild type); higher = more cleavage; co-transcriptional
Entries annotated with measured self-cleavage
// response body must contain only the number

Please review the entries below; each comes with its answer.
sequence.code: AACACUGCCAAUCCCGGUCCCAAGCCCGGAUAAAAAUGGAGGGGGCGG
self-cleavage: 0.126
--
sequence.code: AACACUGCCAAUGCCGGUCCCAAGCCCGGAUAAAAGUUGUGGGGGCGG
self-cleavage: 0.116
--
sequence.code: AACACUGCCAAUGCCGGUCCCAAGCCCGGAUUAAAUUGGAGGGGGCGG
self-cleavage: 0.148
--
sequence.code: AACACUGCCAAUGCCGGUCCCAAGCCCGGAUAAAAGGGUAGGGGGCGG
self-cleavage: 0.114
--
sequence.code: AACACUGCCAAUGCCGAUCCCAAGCCCGGAGAAAAGUGGAGGGGGCGG
self-cleavage: 0.706
--
sequence.code: AACACUGCCAAUUCCGGUCCGAAGCCCGGAUAAAAGUGGAGGGGGCGG
self-cleavage: 0.0567

Please indicate self-cleavage recorded for `AACACUGCCAAUGCCGGUCCCAAGCCCGCAUAAAAGUGGAGGGGGCGU` 0.642

Determine its reported self-cleavage: `AACACUGCCGAUGCCGGUCCCAAGCCCGGAUAAAAGUGGAGGGGGCUG` 1.01

For `AACACAGCCAAUGCCGGUCCCAAGUCCGGAUAAAAGUGGAGGGGGCGG` , write its self-cleavage. 0.718

Look up self-cleavage of `AACACUGCCAAUGCCGGGCCCAAGCCCUGAUAAAAGUGGAGGGGGCGG` and report it. 0.089

Give the reported self-cleavage for this variant. `AACACUGCCAUUGCCGGUCACAAGCCCGGAUAAAAGUGGAGGGGGCGG` 0.178

State its self-cleavage for this variant: `AACACUGUCAAUCCCGGUCCCAAGCCCGGAUAAAAGUGGAGGGGGCGG` 0.121

Look up self-cleavage of `GACACUGCCAAUGCCGGUCCCAAGCCCGGAUAAAAGUGGAGGUGGCGG` and report it. 0.243

Please give measured self-cleavage of the following entry: `AACACUGCCAAUGCGGGUCCCAAGCCCGGAUAAAACUGGAGGGGGCGG` 0.0921

Please report self-cleavage for the following variant: `AACACUGCCAAUGCCGGUCCCAAGCCCUGAUAAAGGUGGAGGGGGCGG` 0.584

For `GACACUGCCAAUGCCGGUCGCAAGCCCGGAUAAAAGUGGAGGGGGCGG` , write its self-cleavage. 0.134

Note self-cleavage for the variant shown: `AACACUGCCAAUGCCGGUCCCAAGCCCGGAUAUAAGUGGAGGGGGCCG` 0.439

Return reported self-cleavage. Input variant: `AACACUGCCAAAGCCGGUCCCAAGCCCGGAUAUAAGUGGAGGGGGCGG` 1.14

Output self-cleavage of `ACCACUGCCAAUGCCGGUCCCAAGCCCGGAUAAAAGUGGACGGGGCGG` 0.0702

# credit: the RNAGym collection of RNA variant scans (doi:10.7554/elife.80360)
